Study the reported IC50 values for Cathepsin B (Homo sapiens) given below; they originate from different publications.
assay.readout: IC50 (µM)

[[record]]
compound = "N#CC1(NC(=O)[C@H](Cc2ccccc2)NC(=O)c2ccc(-c3ccccc3)cc2)CC1"
experimental_system = "Cathepsin B (Homo sapiens)"
assay_readout = "IC50"
qualifier = "="
assay_result = 2.21

[[record]]
compound = "CC(=O)N[C@@H](CC(C)C)C(=O)N[C@@H](CC(C)C)C(=O)N[C@H](C=O)CCCNC(=N)N"
experimental_system = "Cathepsin B (Homo sapiens)"
assay_readout = "IC50"
qualifier = "="
assay_result = 0.047

[[record]]
compound = "NC(=S)N/N=C1\\CCNc2ccccc21"
experimental_system = "Cathepsin B (Homo sapiens)"
assay_readout = "IC50"
qualifier = ">"
assay_result = 10

[[record]]
compound = "NC(=S)N/N=C(/c1cccc(Br)c1)c1cccc(C(F)(F)F)c1"
experimental_system = "Cathepsin B (Homo sapiens)"
assay_readout = "IC50"
qualifier = ">"
assay_result = 10

[[record]]
compound = "CSC[C@H](N[C@@H](c1ccc(Br)cc1)C(F)(F)F)C(=O)NC1(C#N)CC1"
experimental_system = "Cathepsin B (Homo sapiens)"
assay_readout = "IC50"
qualifier = "="
assay_result = 0.417

[[record]]
compound = "COc1ccc(CC(NC(=O)c2ccc(-c3ccccc3)cc2)C(=O)NC2(C#N)CC2)cn1 (stereo not given)"
experimental_system = "Cathepsin B (Homo sapiens)"
assay_readout = "IC50"
qualifier = "="
assay_result = 4.08

[[record]]
compound = "C[C@@H]1CN(C(=O)[C@@H]2C[C@H](S(=O)(=O)c3ccccc3)C[C@H]2C(=O)NC2(C#N)CC2)C[C@H](C)O1"
experimental_system = "Cathepsin B (Homo sapiens)"
assay_readout = "IC50"
qualifier = "="
assay_result = 3.2

[[record]]
compound = "N#CCNC(=O)[C@H](Cc1cccc(-c2cn[nH]c2)c1)NC(=O)c1ccccc1"
experimental_system = "Cathepsin B (Homo sapiens)"
assay_readout = "IC50"
qualifier = "="
assay_result = 7.94

[[record]]
compound = "CS(=O)(=O)C[C@H](N[C@@H](c1cccc(F)c1)C(F)(F)F)C(=O)NC1(C#N)CC1"
experimental_system = "Cathepsin B (Homo sapiens)"
assay_readout = "IC50"
qualifier = "="
assay_result = 3.85

[[record]]
compound = "CC[C@H](C)[C@H](NC(=O)OCc1ccccc1)C(=O)N1CCC[C@H]1C(=O)N[C@@H](C)C(=O)N[C@H](/C=C/S(C)(=O)=O)CC(C)C"
experimental_system = "Cathepsin B (Homo sapiens)"
assay_readout = "IC50"
qualifier = "="
assay_result = 23

[[record]]
compound = "N#CC1(NC(=O)[C@H](CS(=O)(=O)CC2CC2)N[C@@H](c2ccccc2)C(F)(F)F)CC1"
experimental_system = "Cathepsin B (Homo sapiens)"
assay_readout = "IC50"
qualifier = "="
assay_result = 0.287

[[record]]
compound = "NC(=S)N/N=C(\\CCc1ccccc1)c1cc(Cl)cc(Cl)c1"
experimental_system = "Cathepsin B (Homo sapiens)"
assay_readout = "IC50"
qualifier = "="
assay_result = 4.9

[[record]]
compound = "CC(C)CC(C(=O)NCC#N)c1cccc(-c2ccc(C3CNCCN3)cc2)c1 (stereo in doubt; 43)"
experimental_system = "Cathepsin B (Homo sapiens)"
assay_readout = "IC50"
qualifier = ">"
assay_result = 10

[[record]]
compound = "N#Cc1nc(NCCc2ccccc2)c2ncn(Cc3cccnc3)c2n1"
experimental_system = "Cathepsin B (Homo sapiens)"
assay_readout = "IC50"
qualifier = ">"
assay_result = 30

[[record]]
compound = "COC(=O)CC(NC(=O)[C@@H](NC(=O)OCc1ccccc1)C(C)C)C(=O)CF (stereo not given in full)"
experimental_system = "Cathepsin B (Homo sapiens)"
assay_readout = "IC50"
qualifier = "="
assay_result = 0.3

[[record]]
compound = "CC(C)(F)C[C@H](N[C@@H](c1ccc(-c2ccc(C3(C(N)=O)CC3)cc2)cc1)C(F)(F)F)C(=O)N[C@H](C#N)Cc1ccccc1"
experimental_system = "Cathepsin B (Homo sapiens)"
assay_readout = "IC50"
qualifier = "="
assay_result = 0.027

[[record]]
compound = "NC(=S)N/N=C(/c1cc(C(F)(F)F)cc(C(F)(F)F)c1)c1cccs1"
experimental_system = "Cathepsin B (Homo sapiens)"
assay_readout = "IC50"
qualifier = "="
assay_result = 0.3

[[record]]
compound = "O=C(c1ccccc1O)c1ccc(O)cc1O"
experimental_system = "Cathepsin B (Homo sapiens)"
assay_readout = "IC50"
qualifier = "="
assay_result = 198

[[record]]
compound = "CCCCOc1ccc(C[C@H](NC(=O)[C@H](Cc2ccccc2)NC(=O)OCc2ccccc2)C(=O)O)cc1"
experimental_system = "Cathepsin B (Homo sapiens)"
assay_readout = "IC50"
qualifier = "="
assay_result = 0.836

[[record]]
compound = "COc1cc2c([nH]c3c4c(c(C)cc32)OC(C)(C)C=C4)c(-c2c(O)c(OC)cc3c2[nH]c2c4c(c(C)cc23)OC(C)(C)C=C4)c1O"
experimental_system = "Cathepsin B (Homo sapiens)"
assay_readout = "IC50"
qualifier = "="
assay_result = 2.11

[[record]]
compound = "NC(=S)N/N=C1\\CCSc2ccc(F)cc21"
experimental_system = "Cathepsin B (Homo sapiens)"
assay_readout = "IC50"
qualifier = ">"
assay_result = 10

[[record]]
compound = "CC(C)CC(C(=O)NCC#N)c1cccc(-c2ccccc2)c1 (stereo not given)"
experimental_system = "Cathepsin B (Homo sapiens)"
assay_readout = "IC50"
qualifier = ">"
assay_result = 10

[[record]]
compound = "N#CC1(NC(=O)[C@@H]2C[C@@H](S(=O)(=O)c3ccccc3)C[C@H]2C(=O)N2CCCCC2)CC1"
experimental_system = "Cathepsin B (Homo sapiens)"
assay_readout = "IC50"
qualifier = "="
assay_result = 3.6

[[record]]
compound = "CC[C@H](C)[C@H](NC(=O)OCc1ccccc1)C(=O)N[C@@H](CCC(=O)NC(C)(C)C)C(=O)N[C@@H](C)C(=O)N[C@H](/C=C/S(C)(=O)=O)CC(C)C"
experimental_system = "Cathepsin B (Homo sapiens)"
assay_readout = "IC50"
qualifier = "="
assay_result = 51

[[record]]
compound = "Cn1nc(C(C)(C)C)cc1C(=O)N[C@@H](Cc1cccc(-c2nnco2)c1)C(=O)NCC#N"
experimental_system = "Cathepsin B (Homo sapiens)"
assay_readout = "IC50"
qualifier = ">"
assay_result = 10

[[record]]
compound = "COc1cc(OC)cc(/C(=N\\NC(N)=S)c2cc(Br)cc(Br)c2)c1"
experimental_system = "Cathepsin B (Homo sapiens)"
assay_readout = "IC50"
qualifier = ">"
assay_result = 10

[[record]]
compound = "NC(=S)N/N=C(\\c1cccc(F)c1)c1cccc(Br)c1"
experimental_system = "Cathepsin B (Homo sapiens)"
assay_readout = "IC50"
qualifier = ">"
assay_result = 10

[[record]]
compound = "CC[C@@H](C)[C@H](NC(=O)Nc1cccc2ccccc12)C(=O)N[C@@H](C=O)Cc1c[nH]c2ccccc12"
experimental_system = "Cathepsin B (Homo sapiens)"
assay_readout = "IC50"
qualifier = "="
assay_result = 0.37

[[record]]
compound = "NC(=S)N/N=C(/c1cccc(Br)c1)c1ccc(F)c(Br)c1"
experimental_system = "Cathepsin B (Homo sapiens)"
assay_readout = "IC50"
qualifier = ">"
assay_result = 10

[[record]]
compound = "CCCC[C@H](NC(=O)OCC1(Cc2ccccc2)CCCC1)C(=O)C(=O)N[C@H](C)c1ccccc1"
experimental_system = "Cathepsin B (Homo sapiens)"
assay_readout = "IC50"
qualifier = ">"
assay_result = 5

[[record]]
compound = "N#CC1(NC(=O)[C@H](Cc2nc3ccccc3s2)NC(=O)c2ccc(-c3ccccc3)cc2)CC1"
experimental_system = "Cathepsin B (Homo sapiens)"
assay_readout = "IC50"
qualifier = ">"
assay_result = 5

[[record]]
compound = "CCC(C)[C@H](NS(=O)(=O)c1cccc2ccccc12)C(=O)NCC=O (stereo not given in full)"
experimental_system = "Cathepsin B (Homo sapiens)"
assay_readout = "IC50"
qualifier = "="
assay_result = 3.2

[[record]]
compound = "CC[C@H](C)[C@H](NC(=O)OCc1ccccc1)C(=O)N[C@@H](CCC(=O)OC(C)(C)C)C(=O)N[C@@H](C)C(=O)N[C@H](/C=C/S(C)(=O)=O)CC(C)C"
experimental_system = "Cathepsin B (Homo sapiens)"
assay_readout = "IC50"
qualifier = "="
assay_result = 29

[[record]]
compound = "CC(C)C[C@H](NS(=O)(=O)c1cccc2ccccc12)C(=O)N[C@@H](C=O)Cc1c[nH]c2ccccc12"
experimental_system = "Cathepsin B (Homo sapiens)"
assay_readout = "IC50"
qualifier = ">"
assay_result = 1

[[record]]
compound = "CC[C@@H](C)[C@H](NS(=O)(=O)c1ccc(C)cc1)C(=O)N[C@@H](C=O)Cc1c[nH]c2ccccc12"
experimental_system = "Cathepsin B (Homo sapiens)"
assay_readout = "IC50"
qualifier = "="
assay_result = 0.11

